- assayed.system: Dual specificity tyrosine-phosphorylation-regulated kinase 1A (Rattus norvegicus)
- test.summary: Inhibition of rat DYRK1A kinase domain (1 to 499 residues) expressed in bacteria assessed as residual activity at 10 uM using KKISGRLSPIMTEQ as substrate in presence of [gamma33P]ATP relative to control
For each of the molecules below, state its Activity.
Provide the measurement as a number trailed by its unit.

Prompt: State, in one line, measured Activity of CN(C)CNc1ncc2cc3cnccc3c([N+](=O)[O-])c2n1
Response: 4%

Prompt: State, in one line, measured Activity of Nc1ncc2cc3cnccc3c([N+](=O)[O-])c2n1
Response: 5%

Prompt: State, in one line, measured Activity of CC(C)N(/C=N/c1ncc2cc3cnccc3c([N+](=O)[O-])c2n1)C(C)C
Response: 46%

Prompt: State, in one line, measured Activity of CC(C)N(CNc1ncc2cc3cnccc3c([N+](=O)[O-])c2n1)C(C)C
Response: 46%

Prompt: State, in one line, measured Activity of CN(C)/C=N/c1ncc2cc3cnccc3c([N+](=O)[O-])c2n1
Response: 31%
